# Test system: MEK (phosphorylation of MAP kinase (ERK) in murine colon 26 (C26) carcinoma cells)
# METHOD DESCRIPTION: Cellular inhibition of ERK phosphorylation, pERK ELISA format (C26ELSA)
# Format: cell-based
# CONDITION SET: Mus musculus, 1 h, one hour treatment
pIC50: −log10 of the molar value.
METRIC NAME: pIC50

>>> value("NC(=O)c1cn2ccnc2cc1Nc1ccc(I)cc1F")
8.72
